Source listed as ChEMBL document CHEMBL1201862.

System: CAKI-1
Assay: NCI tumour cell line growth inhibition, 48 h
Calls of active or inactive are those of the source. No stated cut-off is given here; in the data, active = GI50 up to about 1.1 µM and inactive = higher.
Kindly supply the reported GI50 values for the records listed here.

Item CN(C)CN1C(=O)S/C(=C2\C(=O)N(CN(C)C)c3ccccc32)C1=O has what recorded GI50?
32 µM (inactive)

Item CC(=O)O[C@H]1CCC2[C@@H]3CCC4NC(=O)C(C#N)C[C@]4(C)C3CC[C@@]21C (stereo not given in full) has what recorded GI50?
> 10 µM (inactive)

Item C=C1C(=O)OC2/C=C(/C)C(OC(C)=O)C/C=C(\C)C(OC(=O)C3(C)OC3C)C(O)C12 (stereo not given) has what recorded GI50?
65.8 µM (inactive)

Item Cc1ccc(NC(=O)/C(=N/NC(=O)C[N+](C)(C)C)c2nc3ccccc3nc2O)cc1 has what recorded GI50?
> 100 µM (inactive)

Item Nc1nc(=O)n([C@@H]2CC[C@H](CO)O2)cc1F has what recorded GI50?
> 100 µM (inactive)

Item COc1cc(-c2[nH]ccc2Cl)oc1C1=C2N=C3C=C2C(C(C)C)C1CCCCCCCC3 (stereo not given) has what recorded GI50?
2 µM (inactive)

Item CC(C)=CC(=O)Cc1nc2ccc([N+](=O)[O-])cc2[nH]c1=O has what recorded GI50?
> 100 µM (inactive)

Item COC1=C(OC)C(=O)C(Cc2c(C)nc3sc(C)cn23)=C(C)C1=O has what recorded GI50?
20.4 µM (inactive)

Item Cn1c(=O)n(C2(C)CSC2)c2ccccc21 has what recorded GI50?
> 100 µM (inactive)

Item O=c1c(NO)c([N+](=O)[O-])cnn1-c1ccccc1 has what recorded GI50?
5.53 µM (inactive)

Item CC1(C)OC(CCC#N)CN1C(=O)OCc1ccccc1 (stereo not given) has what recorded GI50?
> 100 µM (inactive)

Item COC(=O)c1cc(C(=CCC[C@H]2CC[C@@]3(C)C(CCC4C3CC[C@@]3(C)C4CC[C@@H]3C(C)CCCC(C)C)C2)c2cc(Cl)c(OC(=O)c3ccccc3)c(C(=O)OC)c2)cc(Cl)c1OC(=O)c1ccccc1 (stereo not given in full) has what recorded GI50?
> 10 µM (inactive)

Item O=C1/C(=C/c2ccccc2)N=C2Sc3c([nH]cnc3=O)N12 has what recorded GI50?
> 100 µM (inactive)

Item CCOP(=Nc1ccc(N(C)C)cc1)(OCC)OCC has what recorded GI50?
> 100 µM (inactive)

Item CS(=O)(=O)c1ccc(-c2cc(-c3ccc(S(C)(=O)=O)cc3)[n+](-c3cc(-c4ccccc4)c([O-])c(-c4ccccc4)c3)c(-c3ccc(S(C)(=O)=O)cc3)c2)cc1 has what recorded GI50?
> 100 µM (inactive)

* * *

Test system: SK-OV-3
Assay: NCI tumour cell line growth inhibition, 48 h
Calls of active or inactive are those of the source. No stated cut-off is given here; in the data, active = GI50 up to about 1.1 µM and inactive = higher.
The reply should name one outcome from Yes = active, No = inactive

Status in this test for CCCCCC(C)(C)CCC(=O)OC1OC(COC2OC(COC3OC(CO)C(O)C(O)C3O)C(O)C(O)C2O)C(O)C(O)C1O (configuration not stated) ?
No

Status in this test for CO[C@@]12[C@H](COC(N)=O)C3=C(C(=O)C(C)=C(N)C3=O)N1C[C@H]1[C@@H]2N1C (some centres not stated) ?
No

Status in this test for CCOC(=O)N1C2C=C(C)C(ON2C(=O)c2ccccc2)C2C(C)C(=O)N21 (configuration not stated) ?
No

Status in this test for Cc1cccc(C(C)(C)C)c1NC(=O)/C(Cc1nc2ccc([N+](=O)[O-])cc2nc1O)=N\NC(=O)C[N+](C)(C)C ?
No

Status in this test for CC(=O)O[C@H]1C(=O)[C@@]2(C)[C@H]([C@H](OC(=O)c3ccco3)[C@]3(O)C[C@H](OC(=O)[C@H](O)[C@@H](NC(=O)c4ccccc4)c4ccccc4)C(C)=C1C3(C)C)[C@]1(OC(C)=O)CO[C@@H]1C[C@@H]2O ?
Yes

Status in this test for CCOC(=O)c1c(Sc2ccc([N+](=O)[O-])cc2[N+](=O)[O-])nc2c3ccccc3ccn12 ?
No

Status in this test for CO/N=C\c1ccc2c(c1)Sc1ccccc1O2 ?
No

Status in this test for CCN(CC)CCCNc1ccc([N+](=O)[O-])c2nc3ccc(OC)cc3c(N)c12 ?
No

Status in this test for CN1C2(c3ccccc3)c3c(-c4ccccc4)sc(-c4ccccc4)c3C1(c1ccccc1)C1C(=O)N(c3ccccc3)C(=O)C12 (configuration not stated) ?
No

Status in this test for Cc1nc2cn3c(c2c(=O)[nH]1)CCCCC3 ?
No

Status in this test for CC1=C(C)C(=O)O[C@@H]([C@](C)(O)[C@]2(O)CC[C@@]3(O)[C@@H]4C[C@H]5O[C@]56[C@@H](O)C=CC(=O)[C@]6(C)[C@H]4CC[C@]23C)C1 ?
No

Status in this test for COc1cc(-c2[nH]ccc2Cl)oc1C1=C2N=C3C=C2C(C(C)C)C1CCCCCCCC3 (configuration not stated) ?
No

Status in this test for Cc1c(O)ccc2c(O)c(NC(=O)c3ccc4c(c3)CCC(C)(C)O4)c(=O)oc12 ?
No

Status in this test for C=C1C(=O)OC2/C=C(/C)C(OC(C)=O)C/C=C(\C)C(OC(=O)C3(C)OC3C)C(O)C12 (configuration not stated) ?
No

Status in this test for Cc1cc(SCC(=O)c2ccc(Br)cc2)cc(C)[o+]1 ?
No

Status in this test for O=C(CN1CCCCC1)Nc1ccc2c(c1)C1Oc3ccccc3CC1CO2 (configuration not stated) ?
No

Status in this test for O=C(CC1(O)C(=O)Nc2ccccc21)c1ccc(F)cc1 (configuration not stated) ?
No

Status in this test for Cc1c(CN2CCN(C)CC2)c(CN2CCN(C)CC2)c(C)n1-c1ccc(Cl)cc1 ?
No

Status in this test for O=NN(CCCl)C(=O)N[C@H]1CC[C@H](C(=O)O)CC1 ?
No

Status in this test for CCOP(=O)(C=C=C1CCC2[C@@H]3CCc4cc(OC)ccc4C3CC[C@]12C)OCC (some centres not stated) ?
No

Status in this test for S=C1CNC(=S)CN1 ?
No

Status in this test for Nc1nc(N)c2ncn(Cc3ccccc3CCl)c2n1 ?
No

Status in this test for COc1cccc(CC(C)N)c1 (configuration not stated) ?
No

Status in this test for NC(=S)N/N=C1\CC(c2ccccc2)Nc2ccccc21 (configuration not stated) ?
No

Status in this test for COc1ccc(-c2c(C#N)c(S)n(NS(=O)(=O)c3ccc(C)cc3)c(=O)c2C#N)cc1 ?
No

Status in this test for Oc1ccc2ccccc2c1/N=N/c1ccc(Br)cc1 ?
No

Status in this test for CC(Oc1ccccc1Cl)C(=O)NN1C(=O)CSC1c1ccc(Cl)cc1 (configuration not stated) ?
No

Status in this test for CN(C)/C=N\c1cc[nH]c(=O)n1 ?
No

Status in this test for Brc1ccc(-c2cc3c(cc2C2SCCS2)OCO3)cc1 ?
No

Status in this test for CC(=O)O[C@H]1/C(=C/c2ccncc2)C[C@H]2[C@@H]3CC=C4C[C@@H](N5CCCC5)CC[C@]4(C)[C@H]3CC[C@]12C ?
No

Status in this test for O=C(Nc1ccccc1)C(=O)C(C(=O)c1ccccc1)C(c1ccccc1)c1ccccc1 (configuration not stated) ?
No

Status in this test for CCOC(=O)C(=O)Nc1c(N(CC)CC)n2ccccc2nc1=O ?
No

Status in this test for CC(N)C(C)Cc1ccccc1 (configuration not stated) ?
No

Status in this test for CO[C@H]1[C@@H](O)[C@H](O[C@@H]2C[C@H]3CC[C@@H]4[C@H](CC[C@]5(C)[C@@H](C6=CC(=O)OC6)CC[C@]45O)[C@@]3(C)[C@H](OC(C)=O)C2)O[C@@H](C)[C@H]1O ?
No

Status in this test for Cc1ccc(S(=O)(=O)N/N=C2/CCC(C(C)(C)C)CC2Br)cc1 (configuration not stated) ?
No

Status in this test for O=C(/C=C/c1ccccc1)c1cc(C(=O)/C=C/c2ccccc2)c(O)cc1O ?
No

Status in this test for Cc1cc(S(=O)(=O)Nc2nc3cscc3c(=O)n2N)c(S)cc1Cl ?
No
